# Assay Overview: Elimination half life in CD1 mouse at 5 mg/kg, po by LC-MS/MS analysis
# Type: ADME, organism-based
# Parameters: dose 5 mg/kg, route oral
# Experimental Conditions: in vivo, read-out: beta t1/2 (converted)
Reported Endpoint: half-life (h)

| Structure Notation | Reported Endpoint | Observed Measurement |
| --- | --- | --- |
| CC1=C2C[C@H]3[C@@H](CCC4=CC(=O)CC[C@@]43C)[C@@H]2CC[C@@]2(C1)O[C@@H]1C[C@H](C)CN[C@H]1[C@H]2C.Cl | half-life | 3.2 |

---

# Assay Overview: Oral bioavailability in CD1 mouse at 5 mg/kg by LC-MS/MS analysis
# Assay type: ADME, organism-based
# Experimental Conditions: in vivo
Reported Endpoint: bioavailability (%)

| Structure Notation | Observed Measurement |
| --- | --- |
| CC1=C2C[C@H]3[C@@H](CCC4=CC(=O)CC[C@@]43C)[C@@H]2CC[C@@]2(C1)O[C@@H]1C[C@H](C)CN[C@H]1[C@H]2C.Cl | 80 |
